Values compiled from patent US8163909B2.

Tested on: Aβ40 in conditioned medium of cells stably expressing Amyloid Precursor Protein (APP)
Assay remarks: In vitro BACE cell-based assay (Aβ40 in conditioned medium, sandwich ELISA);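 also: compounds added as a dilution series, secreted peptide quantified by europium time-resolved fluorescence readout, potency fitted from percent of control versus compound concentration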
Run conditions: Homo sapiens, HEK293, HEK cell-based assay, IC50's in uM; read-out: HEK cell assay
# IC50 listing for each entry below
Recorded metric: IC50 (µM)

# Compound, Subject of test, Observed value
rows = [
    ("C#Cc1cccc(C[C@H](NC(=O)COC)[C@H](O)CN[C@H]2CC3(CCC3)Oc3ncc(CC(C)(F)F)cc32)c1", "Aβ40 in conditioned medium of cells stably expressing Amyloid Precursor Protein (APP)", 0.016),
    ("CC(C)(C)Cc1cnc2c(c1)[C@@H](NC[C@@H](O)[C@H](Cc1ccc(F)cc1)NC(=O)[C@@H]1CN(Cc3nccs3)CCO1)CC1(CCC1)O2", "Aβ40 in conditioned medium of cells stably expressing Amyloid Precursor Protein (APP)", 0.013),
    ("CCCc1cnc2c(c1)[C@@H](NC[C@H](O)[C@@H](Cc1cc(F)cc(-c3nccs3)c1)NC(=O)COC)CC1(CCC1)O2", "Aβ40 in conditioned medium of cells stably expressing Amyloid Precursor Protein (APP)", 2.28),
    ("CC(C)(C)Cc1cnc2c(c1)[C@@H](NC[C@@H](O)[C@H](Cc1ccc3c(c1)OCO3)NC(=O)C1CCS(=O)(=O)C1)CC1(CCC1)O2 (some centres unmarked)", "Aβ40 in conditioned medium of cells stably expressing Amyloid Precursor Protein (APP)", 0.075),
    ("COCC(=O)N[C@@H](Cc1cccc(-c2nccs2)c1)[C@H](O)CN[C@@H]1C[C@@]2(CCOC2)Oc2ncc(CC(C)(C)C)cc21", "Aβ40 in conditioned medium of cells stably expressing Amyloid Precursor Protein (APP)", 0.007),
]

---

Subject of test: CYP2D6 (Homo sapiens)
Sequence (P10635 whole entry): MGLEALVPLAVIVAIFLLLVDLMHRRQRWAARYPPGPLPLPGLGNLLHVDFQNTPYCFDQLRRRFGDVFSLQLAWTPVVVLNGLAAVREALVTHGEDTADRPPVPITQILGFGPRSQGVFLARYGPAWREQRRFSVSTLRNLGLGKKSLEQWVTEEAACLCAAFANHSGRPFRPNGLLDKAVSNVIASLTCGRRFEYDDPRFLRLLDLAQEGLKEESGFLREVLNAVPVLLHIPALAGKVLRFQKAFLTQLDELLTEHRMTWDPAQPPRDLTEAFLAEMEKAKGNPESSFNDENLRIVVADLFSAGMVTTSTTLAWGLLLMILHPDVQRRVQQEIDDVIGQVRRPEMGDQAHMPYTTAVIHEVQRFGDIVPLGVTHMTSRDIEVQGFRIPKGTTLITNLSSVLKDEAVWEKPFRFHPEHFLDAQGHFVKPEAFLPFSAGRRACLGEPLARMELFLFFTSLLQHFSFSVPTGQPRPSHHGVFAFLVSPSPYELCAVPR
Assay remarks: CYP2D6 inhibition assay (bufuralol, pooled human liver microsomes)
Run conditions: 2D6 IC50, CYP enzyme inhibition
# IC50 listing for each entry below

# Compound, IC50 / nM
data = [
    ("COCC(=O)N[C@@H](Cc1cccc(-n2cccn2)c1)[C@H](O)CN[C@H]1CC2(CCC2)Oc2ncc(CC(C)(C)C)cc21 [compound 854]", 2500),
    ("CC(C)(C)Cc1cnc2c(c1)[C@@H](NC[C@@H](O)[C@H](Cc1cc(F)cc(-c3nccs3)c1)NC(=O)C1(C)CC1)CC1(CCC1)O2 [compound 876]", 300),
    ("COCC(=O)N[C@@H](Cc1ccc2c(c1)OCO2)[C@H]1CN([C@H]2CC3(CCC3)Oc3ncc([C@H](F)C(C)(C)C)cc32)C(=O)O1 [compound 446]", 1200),
    ("CNc1nc(CC(C)(C)C)cc2c1OC1(CCC1)C[C@@H]2NC[C@@H](O)[C@H](Cc1cc(F)cc(-c2nccs2)c1)NC(=O)COC [Example 847]", 800),
    ("CO[C@H](C)C(=O)N[C@@H](Cc1ccc(F)cc1)[C@H](O)CN[C@H]1CC2(CCC2)Oc2c1cc(CC(C)C)cc2-n1ccnc1 [compound 482]", 3600),
    ("CO[C@H](C)C(=O)N[C@@H](Cc1cc(F)cc(F)c1)[C@H](O)CN[C@H]1CC2(CCC2)Oc2c(-c3nccs3)cc(CC(C)C)cc21 [compound 459]", 10200),
]

---

# HLM listing for each entry below
Assay remarks: Microsomal stability assay, human liver microsomes;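 also: pooled human liver microsomes at 0.25 mg/mL with 1 µM compound and NADPH at 37 °C, pH 7.4, for 30 min, unchanged parent quantified by LC-MS/MS against the 0 min sample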
Run conditions: human liver microsomes

# Smiles text, HLM [µL/min/mg]
data = [
    ("CO[C@H](C)C(=O)N[C@@H](Cc1cccc(C#N)c1)[C@H](O)CN[C@H]1CC2(CCC2)Oc2c(-c3ccncc3)cc(CC(C)(C)C)cc21", 32),
    ("COCC(=O)N[C@@H](Cc1cc(F)cc(-c2ncc(C)s2)c1)[C@H](O)CN[C@H]1CC2(CCC2)Oc2ncc(CC(C)C)cc21", 551),
    ("CC(=O)N[C@@H](Cc1cc2c(c(-c3ccncc3)c1)OCO2)[C@H](O)CN[C@H]1CC2(CCC2)Oc2ncc(CC(C)(C)C)cc21", 451),
    ("CC(=O)N[C@@H](Cc1cc(F)cc(F)c1)[C@H](O)CN[C@H]1CC2(CCC2)Oc2c(-c3ccncc3)cc(CC(C)C)cc21", 46),
    ("CO[C@H](C)C(=O)N[C@@H](Cc1ccccc1)[C@H](O)CN[C@H]1CC2(CCC2)Oc2c(-c3ccncc3)cc(CC(C)C)cc21", 89),
    ("COCC(=O)N[C@@H](Cc1ccc2c(c1)OCO2)[C@H](O)CN[C@H]1CC2(CCC2)Oc2ncc([C@H]3CC3(C)C)cc21", 31),
    ("Cc1ccccc1CN1CCO[C@@H](C(=O)N[C@@H](Cc2ccc(F)cc2)[C@H](O)CN[C@H]2CC3(CCC3)Oc3ncc(CC(C)(C)C)cc32)C1", 706),
    ("CO[C@H](C)C(=O)N[C@@H](Cc1ccc(F)cc1)[C@H](O)CN[C@H]1CC2(CCC2)Oc2c(-c3ccncc3)cc(CC(C)C)cc21", 51),
    ("CO[C@H](C)C(=O)N[C@@H](Cc1ccncc1)[C@H](O)CN[C@H]1CC2(CCC2)Oc2ncc(C(F)(F)F)cc21", 178),
    ("CC(=O)N[C@@H](Cc1cc(F)cc(F)c1)[C@H](O)CN[C@H]1CC2(CCC2)Oc2c1cc(C1CC1)cc2-n1ccnc1", 51),
    ("COCC(=O)N[C@@H](Cc1cc(F)cc(F)c1)[C@H](O)CN[C@H]1CC2(CCC2)Oc2c1cc(CC(C)(C)C)nc2-c1nccn1C", 26),
    ("CC(=O)N[C@@H](Cc1cccc(-c2ncc[nH]2)c1)[C@H](O)CN[C@H]1CC2(CCC2)Oc2ncc(CC(C)(C)C)cc21", 88),
]

---

Subject of test: Beta Secretase enzyme (BACE) (Homo sapiens, UniProt P56817)
Sequence (P56817 46-501): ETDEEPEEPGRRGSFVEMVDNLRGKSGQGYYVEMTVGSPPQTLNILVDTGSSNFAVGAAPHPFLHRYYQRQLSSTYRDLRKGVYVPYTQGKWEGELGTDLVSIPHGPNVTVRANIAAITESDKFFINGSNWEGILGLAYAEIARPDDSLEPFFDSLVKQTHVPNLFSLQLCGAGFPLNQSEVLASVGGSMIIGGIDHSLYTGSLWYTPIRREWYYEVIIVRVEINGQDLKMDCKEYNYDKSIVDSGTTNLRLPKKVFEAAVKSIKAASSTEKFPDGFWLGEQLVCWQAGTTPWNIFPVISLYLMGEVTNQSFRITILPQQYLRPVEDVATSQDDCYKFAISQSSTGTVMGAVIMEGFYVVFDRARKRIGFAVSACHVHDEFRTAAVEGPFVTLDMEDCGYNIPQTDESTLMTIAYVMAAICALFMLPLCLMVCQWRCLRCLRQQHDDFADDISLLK
Assay remarks: In vitro enzymatic BACE FRET (fluorescence resonance energy transfer) assay;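 also: fluorescence read after 1 h with 50 nM quenched peptide substrate spanning the BACE cleavage site, in pH 4.2 acetate buffer containing 10% DMSO and nonionic detergent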
Assay type: biochemical
Run conditions: BACE enzyme assay; read-out: BACE1 FRET assay
Recorded metric: log10(IC50) (log10 of the value in nM)

# Smiles text, log10(IC50)
data = [
    ("CO[C@H](C)C(=O)N[C@@H](Cc1cccc(F)c1)[C@H](O)CN[C@@H]1CC2(CCC2)Oc2c1cc(CC(C)(C)C)nc2-n1ccnc1", 3.72),
    ("CO[C@H](C)C(=O)N[C@@H](Cc1ccccc1)[C@H](O)CN[C@H]1CC2(CCC2)Oc2c(Br)cc(CC(C)C)cc21", 0.85),
    ("COCC(=O)N[C@@H](Cc1cccc(F)c1)[C@H](O)CN[C@H]1CC2(CCC2)Oc2c1cc(CC(C)(C)C)cc2-n1ccnc1", 1.28),
    ("CO[C@H](C)C(=O)N[C@@H](Cc1cccc(F)c1)[C@H](O)CN[C@H]1CC2(CCC2)Oc2c(Br)cc(CC(C)C)cc21", 0.48),
    ("CO[C@H](C)C(=O)N[C@@H](Cc1cccc(F)c1)[C@H](O)CN[C@H]1CC2(CCC2)Oc2c1cc(CC(C)(C)C)nc2-c1ccncc1", 1.11),
    ("COCC(=O)N[C@@H](Cc1ccc(F)cc1)[C@H](O)CN[C@H]1CC2(CCC2)Oc2c1cc(CC(C)(C)C)nc2-c1c[nH]cn1", 1.36),
    ("CC[C@H](OC)C(=O)N[C@@H](Cc1ccc(F)cc1)[C@H](O)CN[C@H]1CC2(CCC2)Oc2ncc(CC(C)(C)C)cc21", 2.01),
    ("COC(OC)C(=O)N[C@@H](Cc1ccc2c(c1)OCO2)[C@H](O)CN[C@H]1CC2(CCC2)Oc2ncc(CC(C)(C)C)cc21", 1.28),
    ("CC(=O)N[C@@H](Cc1cccc(F)c1)[C@H](O)CN[C@H]1CC2(CCC2)Oc2c1cc(CC(C)(C)C)nc2-n1ccnc1", 1.32),
    ("CO[C@H](C)C(=O)N[C@@H](Cc1ccncc1)[C@H](O)CN[C@H]1CC2(CCC2)Oc2ncc(CC(C)(C)C)cc21", 1.36),
    ("CC(C)(C)Cc1cnc2c(c1)[C@@H](NC[C@@H](O)[C@H](Cc1ccc(F)cc1)NC(=O)[C@@H]1CCO1)CC1(CCC1)O2", 1.08),
    ("CO[C@H](C)C(=O)N[C@@H](Cc1cccc(F)c1)[C@H](O)CN[C@H]1CC2(CCC2)Oc2c(-c3ccncc3)cc(CC(C)(C)O)cc21", 1.59),
]

---

Assay remarks: Microsomal stability assay, rat liver microsomes;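 also: rat liver microsomes (0.25 mg/mL) with about 1 µM compound plus 1 mM NADPH, pH 7.4, 37 °C for 30 min, parent left measured by LC-MS/MS against 0 min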
Run conditions: rat liver microsomal data
Response field class: enum, chosen by comparing RLM against c1 = under 70 µL/min/mg, c2 = from 70 µL/min/mg up to 200 µL/min/mg, c3 = 200 µL/min/mg and over

# Smiles text, Label value
rows = [
    ("CC(C)C(=O)N[C@@H](Cc1cc(F)cc(-c2nccs2)c1)[C@H](O)CN[C@H]1CC2(CCC2)Oc2ncc(CC(C)(C)C)cc21", "c1"),
    ("CO[C@H](C)C(=O)N[C@@H](Cc1ccccc1)[C@H](O)CN[C@H]1CC2(CCC2)Oc2c1cc(CC(C)(C)C)nc2-c1ccncc1", "c3"),
    ("CC(C)(C)Cc1cnc2c(c1)[C@@H](NC[C@@H](O)[C@H](Cc1ccc(F)cc1)NC(=O)C(C)(F)F)CC1(CCC1)O2", "c3"),
    ("COCC(=O)N[C@@H](Cc1ccc(F)cc1)[C@H](O)CN[C@@H]1CC2(CCC2)Oc2c1cc(CC(C)(C)C)nc2-n1ccnc1", "c2"),
    ("C#Cc1cccc(C[C@H](NC(=O)[C@@H](C)OC)[C@H](O)CN[C@H]2CC3(CCC3)Oc3ncc(CC(C)(C)C)cc32)c1F", "c1"),
    ("COCC(=O)N[C@@H](Cc1cccc(-c2ncc(C)s2)c1)[C@H](O)CN[C@H]1CC2(CCC2)Oc2ncc(CC(C)(C)C)cc21", "c3"),
    ("CO[C@H](C)C(=O)N[C@@H](Cc1cc(F)cc(-c2nccs2)c1)[C@H](O)CN[C@H]1CC2(CCC2)Oc2ncc(CC(C)C)cc21", "c2"),
    ("CC(C)(C)Cc1cnc2c(c1)[C@@H](NC[C@@H](O)[C@H](Cc1cc(F)cc(-c3nccs3)c1)NC(=O)C1(C)CC1)CC1(CCC1)O2", "c2"),
    ("CC(C)(C)Cc1cnc2c(c1)[C@@H](NC[C@@H](O)[C@H](Cc1ccc(F)cc1)NC(=O)[C@@H]1CN(Cc3cscn3)CCO1)CC1(CCC1)O2", "c2"),
    ("CO[C@H](C)C(=O)N[C@@H](Cc1ccccc1)[C@H](O)CN[C@H]1CC2(CCC2)Oc2c1cc(CC(C)C)cc2-n1ccnc1", "c3"),
    ("COCC(=O)N[C@@H](Cc1cccc(F)c1)[C@H](O)CN[C@H]1CC2(CCC2)Oc2c(-c3ccncc3)cc(Cl)cc21", "c3"),
    ("CC(=O)N[C@@H](Cc1ccc(F)cc1)[C@H](O)CN[C@H]1CC2(CCC2)Oc2c1cc(CC(C)(C)C)nc2N1CCOCC1", "c2"),
    ("CO[C@H](C)C(=O)N[C@@H](Cc1ccncc1)[C@H](O)CN[C@H]1CC2(CCC2)Oc2ncc(CC(C)(C)C)cc21", "c2"),
    ("Cc1nc(CN2CCO[C@@H](C(=O)N[C@@H](Cc3ccc(F)cc3)[C@H](O)CN[C@H]3CC4(CCC4)Oc4ncc(CC(C)(C)C)cc43)C2)cs1", "c2"),
    ("COCCC(=O)N[C@@H](Cc1cccc(-c2nccs2)c1)[C@H](O)CN[C@H]1CC2(CCC2)Oc2ncc(CC(C)(C)C)cc21", "c1"),
    ("COCC(=O)N[C@@H](Cc1cccc(F)c1)[C@H](O)CN[C@H]1CC2(CCC2)Oc2ccc(C[C@@H](C)F)cc21", "c3"),
    ("COCC(=O)N[C@@H](Cc1ccc2c(c1)OCO2)[C@H]1CN([C@H]2CC3(CCC3)Oc3ncc([C@H](F)C(C)(C)C)cc32)C(=O)O1", "c2"),
    ("COC(OC)C(=O)N[C@@H](Cc1cc(F)cc(-c2nccs2)c1)[C@H](O)CN[C@H]1CC2(CCC2)Oc2ncc(CC(C)(F)F)cc21", "c1"),
    ("COCC(=O)N[C@@H](Cc1ccc(F)cc1)[C@H](O)CN[C@H]1CC2(CCC2)Oc2c1cc(CC(C)(C)C)nc2-n1ccnc1", "c2"),
    ("CO[C@@H](C)C(=O)N[C@@H](Cc1ccc2c(c1)OCO2)[C@H](O)CN[C@H]1CC2(CCC2)Oc2ccc(C[C@@H](C)F)cc21", "c3"),
    ("C#Cc1cccc(C[C@H](NC(=O)COC)[C@H](O)CN[C@H]2CC3(CCC3)Oc3ncc(CC(C)C)cc32)c1", "c1"),
    ("CNc1cc(CC(C)(C)C)cc2c1OC1(CCC1)C[C@@H]2NC[C@@H](O)[C@H](Cc1cc(F)cc(F)c1)NC(=O)COC", "c3"),
]
